test system: SF-295; assay: NCI60 one-dose screen (10 μM), CNS Cancer; format: cell-based; details: Homo sapiens; 10 μM; SF-295, CNS Cancer; read-out: Growth percent rate
MEASURE: activity at 10 µM (%)
Answer in %, number only, no unit symbol.

Data request: GET /values?readout=activity at 10 µM&item= CC[C@]12C=CCN3CC[C@@]4(c5ccc(OC)cc5N(C)[C@H]4[C@@](O)(C(=O)OC)[C@@H]1OC(=O)CCCN1CCN(C(=O)c4ccco4)CC1)[C@@H]32
Data returned: 89.5

Data request: GET /values?readout=activity at 10 µM&item= CC[C@]12C=CCN3CC[C@@]4(c5ccc(OC)cc5N(C)[C@H]4[C@@](O)(C(=O)OC)[C@@H]1OC(=O)CCCN1CCN(c4ccc(C(F)(F)F)cc4)CC1)[C@@H]32
Data returned: -84.8

Data request: GET /values?readout=activity at 10 µM&item= CCC12C=CCN3CCC4(c5cc(NC(=O)CN6CCN(C)CC6)c(OC)cc5N(C)C4C(O)(C(=O)OC)C1OC(C)=O)C32 (centres unmarked)
Data returned: 98.8

Data request: GET /values?readout=activity at 10 µM&item= CC[C@]12C=CCN3CC[C@@]4(c5ccc(OC)cc5N(C)[C@H]4[C@@](O)(C(=O)OC)[C@@H]1OC(=O)CCC(=O)N1CCN(C(c4ccc(F)cc4)c4ccc(F)cc4)CC1)[C@@H]32
Data returned: -61.1

Data request: GET /values?readout=activity at 10 µM&item= CCC12C=CCN3CCC4(c5ccc(OC)cc5N(C)C4C(O)(C(=O)OC)C1OC(=O)CCC(=O)O)C32 (centres unmarked)
Data returned: 113

Data request: GET /values?readout=activity at 10 µM&item= CC[C@]12C=CCN3CC[C@@]4(c5ccc(OC)cc5N(C)[C@H]4[C@@](O)(C(=O)OC)[C@@H]1OC(=O)CCCN1CCN(Cc4ccc(F)cc4)CC1)[C@@H]32
Data returned: 70.2

Data request: GET /values?readout=activity at 10 µM&item= CCC12C=CCN3CCC4(c5cc(NC(=O)CN6CCN(c7ccc(C(F)(F)F)cc7)CC6)c(OC)cc5N(C)C4C(O)(C(=O)OC)C1OC(C)=O)C32 (centres unmarked)
Data returned: -70.2

Data request: GET /values?readout=activity at 10 µM&item= CC[C@]12C=CCN3CC[C@@]4(c5ccc(OC)cc5N(C)[C@H]4[C@@](O)(C(=O)OC)[C@@H]1OC(=O)CCC(=O)N1CCN(C)CC1)[C@@H]32
Data returned: 97.9

Data request: GET /values?readout=activity at 10 µM&item= CCC12C=CCN3CCC4(c5ccc(OC)cc5N(C)C4C(O)(C(=O)OC)C1OC(=O)CCCBr)C32 (centres unmarked)
Data returned: 86.9

Data request: GET /values?readout=activity at 10 µM&item= CCC12C=CCN3CCC4(c5cc(NC(=O)CCl)c(OC)cc5N(C)C4C(O)(C(=O)OC)C1OC(C)=O)C32 (centres unmarked)
Data returned: 52.2

Data request: GET /values?readout=activity at 10 µM&item= CCC12C=CCN3CCC4(c5ccc(OC)cc5N(C)C4C(O)(C(=O)OC)C1OC(=O)CCCN1CCN(C)CC1)C32 (centres unmarked)
Data returned: 96.2

Data request: GET /values?readout=activity at 10 µM&item= CCC12C=CCN3CCC4(c5cc(NC(=O)CN6CCN(C(=O)c7ccco7)CC6)c(OC)cc5N(C)C4C(O)(C(=O)OC)C1OC(C)=O)C32 (centres unmarked)
Data returned: 110

Data request: GET /values?readout=activity at 10 µM&item= CCC12C=CCN3CCC4(c5cc(NC(=O)CN6CCN(C(c7ccc(F)cc7)c7ccc(F)cc7)CC6)c(OC)cc5N(C)C4C(O)(C(=O)OC)C1OC(C)=O)C32 (centres unmarked)
Data returned: 13.8

Data request: GET /values?readout=activity at 10 µM&item= CC[C@]12C=CCN3CC[C@@]4(c5ccc(OC)cc5N(C)[C@H]4[C@@](O)(C(=O)OC)[C@@H]1OC(=O)CCC(=O)N1CCN(c4ccc(C(F)(F)F)cc4)CC1)[C@@H]32
Data returned: 1.73

Data request: GET /values?readout=activity at 10 µM&item= CC[C@]12C=CCN3CC[C@@]4(c5ccc(OC)cc5N(C)[C@H]4[C@@](O)(C(=O)OC)[C@@H]1OC(=O)CCC(=O)N1CCN(Cc4ccc(C(F)(F)F)cc4)CC1)[C@@H]32
Data returned: 7.76

Data request: GET /values?readout=activity at 10 µM&item= CC[C@]12C=CCN3CC[C@@]4(c5ccc(OC)cc5N(C)[C@H]4[C@@](O)(C(=O)OC)[C@@H]1OC(=O)CCCN1CCN(Cc4ccc(C(F)(F)F)cc4)CC1)[C@@H]32
Data returned: -86.7

Data request: GET /values?readout=activity at 10 µM&item= CC[C@]12C=CCN3CC[C@@]4(c5ccc(OC)cc5N(C)[C@H]4[C@@](O)(C(=O)OC)[C@@H]1OC(=O)CCC(=O)N1CCN(Cc4ccc(F)cc4)CC1)[C@@H]32
Data returned: 67.9
